Kindly supply the reported DC50 values for the records listed here.
molecular target: CYCLIN K (nuclear staining in CAL-120 cells) (Homo sapiens); construct: endogenous in cells; host or cells: CAL-120 human breast cancer cells (DSMZ ACC 459); assay: CYCLIN K nuclear protein level: immunofluorescence high content analysis (CAL-120); type: cell-based; details: 24 h, 50% reduction of nuclear CCNK staining intensity, median, read-out: CYCLIN K degradation IF, DC50-[mol/l] (median)
Sequence (O75909 whole entry): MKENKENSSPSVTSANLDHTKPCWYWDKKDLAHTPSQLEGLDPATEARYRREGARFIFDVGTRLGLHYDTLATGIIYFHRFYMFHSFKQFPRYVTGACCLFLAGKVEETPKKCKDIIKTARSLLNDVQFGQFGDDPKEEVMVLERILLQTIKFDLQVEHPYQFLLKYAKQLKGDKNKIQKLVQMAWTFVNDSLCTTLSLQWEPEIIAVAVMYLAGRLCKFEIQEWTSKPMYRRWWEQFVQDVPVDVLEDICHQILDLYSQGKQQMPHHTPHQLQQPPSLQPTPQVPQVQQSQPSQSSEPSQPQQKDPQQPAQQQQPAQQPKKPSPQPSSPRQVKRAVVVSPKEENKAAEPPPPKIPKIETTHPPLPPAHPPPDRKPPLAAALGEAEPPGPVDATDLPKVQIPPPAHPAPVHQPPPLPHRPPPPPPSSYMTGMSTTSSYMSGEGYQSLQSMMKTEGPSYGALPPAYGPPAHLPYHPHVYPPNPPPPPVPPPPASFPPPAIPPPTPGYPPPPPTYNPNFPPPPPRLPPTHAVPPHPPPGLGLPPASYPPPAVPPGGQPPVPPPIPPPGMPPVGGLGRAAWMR
Sequence (Q9NYV4 whole entry partner): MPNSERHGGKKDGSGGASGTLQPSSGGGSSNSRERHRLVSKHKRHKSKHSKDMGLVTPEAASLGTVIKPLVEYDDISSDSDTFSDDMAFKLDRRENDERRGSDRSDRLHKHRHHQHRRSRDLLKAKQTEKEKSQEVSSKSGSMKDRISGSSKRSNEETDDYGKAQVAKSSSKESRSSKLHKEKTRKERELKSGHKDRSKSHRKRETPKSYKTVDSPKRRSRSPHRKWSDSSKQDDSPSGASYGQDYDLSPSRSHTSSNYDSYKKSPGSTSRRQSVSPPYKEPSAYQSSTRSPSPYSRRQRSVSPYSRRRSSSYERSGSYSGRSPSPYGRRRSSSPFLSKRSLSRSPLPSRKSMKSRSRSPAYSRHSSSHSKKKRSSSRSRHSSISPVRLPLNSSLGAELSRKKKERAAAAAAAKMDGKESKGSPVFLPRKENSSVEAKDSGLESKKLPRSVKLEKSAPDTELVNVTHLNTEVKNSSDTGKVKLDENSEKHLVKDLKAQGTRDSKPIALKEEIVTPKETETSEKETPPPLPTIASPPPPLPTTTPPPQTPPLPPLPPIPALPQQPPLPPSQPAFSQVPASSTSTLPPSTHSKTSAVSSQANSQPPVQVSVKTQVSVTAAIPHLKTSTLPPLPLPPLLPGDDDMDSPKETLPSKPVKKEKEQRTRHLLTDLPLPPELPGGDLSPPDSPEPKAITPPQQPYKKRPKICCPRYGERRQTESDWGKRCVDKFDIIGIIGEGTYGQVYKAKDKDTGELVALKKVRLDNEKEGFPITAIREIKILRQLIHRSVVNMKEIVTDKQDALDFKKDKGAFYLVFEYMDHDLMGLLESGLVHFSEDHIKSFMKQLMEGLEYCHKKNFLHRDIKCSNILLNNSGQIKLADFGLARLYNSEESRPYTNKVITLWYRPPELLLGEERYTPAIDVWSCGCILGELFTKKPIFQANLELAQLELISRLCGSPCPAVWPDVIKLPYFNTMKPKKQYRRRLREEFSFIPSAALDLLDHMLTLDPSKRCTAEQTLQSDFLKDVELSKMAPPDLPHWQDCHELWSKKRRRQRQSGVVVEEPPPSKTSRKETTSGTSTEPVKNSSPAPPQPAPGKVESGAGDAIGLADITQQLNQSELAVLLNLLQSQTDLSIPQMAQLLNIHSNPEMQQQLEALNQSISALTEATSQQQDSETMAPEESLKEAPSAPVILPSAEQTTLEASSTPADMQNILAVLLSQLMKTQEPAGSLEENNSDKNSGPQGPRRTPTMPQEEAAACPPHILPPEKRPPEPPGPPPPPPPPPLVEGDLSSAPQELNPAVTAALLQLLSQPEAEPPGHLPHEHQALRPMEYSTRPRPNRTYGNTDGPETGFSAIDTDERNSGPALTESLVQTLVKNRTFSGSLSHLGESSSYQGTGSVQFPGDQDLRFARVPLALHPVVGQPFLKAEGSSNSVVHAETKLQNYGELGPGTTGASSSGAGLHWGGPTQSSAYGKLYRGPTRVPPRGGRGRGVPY
Kindly answer with a numeric value in pM, unit omitted.

Q) Given CC(C)(O)CNc1nc(NCc2nc3ccccc3[nH]2)n2ncc(Br)c2n1 [Example 229] , state its recorded DC50.
A) 390

Q) Given Brc1cnn2c(NCc3nc4ccccc4[nH]3)nc(N3CC4CCNC4C3)nc12 (stereo not drawn) [Example 271] , state its recorded DC50.
A) 1210

Q) Given CC(C)c1cnn2c(NCc3nnc(-c4ccccc4)[nH]3)nc(N(C)CC(C)(C)O)nc12 [Example 39] , state its recorded DC50.
A) 8130

Q) Given C[C@@H]1CN(c2nc(NCc3nc4cc(F)ccc4[nH]3)n3ncc(Br)c3n2)C[C@H](C)O1 [Example 110] , state its recorded DC50.
A) 354

Q) Given CN1CC2CCC(C1)N2c1nc(NCc2nc3ccccc3[nH]2)n2ncc(Br)c2n1 [Example 226] , state its recorded DC50.
A) 3890

Q) Given CC(C)c1cnn2c(NCc3nc4ccccc4[nH]3)nc(N3CCN(C)CC3)nc12 [Example 2] , state its recorded DC50.
A) 5040

Q) Given Cc1cccc2[nH]c(CNc3nc(N4CCN(C)CC4)nc4c(Br)cnn34)nc12 [Example 151] , state its recorded DC50.
A) 2450

Q) Given Fc1ccc2[nH]c(CNc3nc(N4CCNCC4)nc4c(C5CC5)cnn34)nc2c1F [Example 174] , state its recorded DC50.
A) 97.6

Q) Given CN(CC(C)(C)O)c1nc(NCc2nc3cc(F)c(F)cc3[nH]2)n2ncc(C3CC3)c2n1 [Example 319] , state its recorded DC50.
A) 492

Q) Given Cn1cc(-c2cnn3c(NCc4nc5c(F)c(F)ccc5[nH]4)nc(N4CCOCC4)nc23)cn1 [Example 418] , state its recorded DC50.
A) 2400

Q) Given Brc1cnn2c(NCc3nc4ccccc4[nH]3)nc(N3C[C@@H]4CCCN[C@@H]4C3)nc12 [Example 146] , state its recorded DC50.
A) 560

Q) Given COC1CCN(c2nc(NCc3nc4ccccc4[nH]3)n3ncc(Br)c3n2)CC1 [Example 62] , state its recorded DC50.
A) 2270

Q) Given Fc1ccc2[nH]c(CNc3nc(N4C[C@@H]5C[C@H]4CO5)nc4c(C5CC5)cnn34)nc2c1 [Example 185] , state its recorded DC50.
A) 2000

Q) Given CN1CCN(c2nc(NCc3nc4cc(Cl)ccc4[nH]3)n3ncc(Br)c3n2)CC1 [Example 163] , state its recorded DC50.
A) 279

Q) Given CC(C)CNc1nc(NCc2nc3ccccc3[nH]2)n2ncc(Br)c2n1 [Example 285] , state its recorded DC50.
A) 3460

Q) Given CN1CCN(c2nc(NCc3nc4c(F)cccc4[nH]3)n3ncc(Br)c3n2)CC1 [Example 126] , state its recorded DC50.
A) 142

Q) Given Cc1ccc2[nH]c(CNc3nc(N4CCN(C)CC4)nc4c(Br)cnn34)nc2c1 [Example 158] , state its recorded DC50.
A) 367

Q) Given FC(F)(F)Cc1cnn2c(NCc3nc4cc(Cl)ccc4[nH]3)nc(N3CCOCC3)nc12 [Example 299] , state its recorded DC50.
A) 484

Q) Given Fc1cccc2[nH]c(CNc3nc(N4CCOCC4)nc4c(CC(F)(F)F)cnn34)nc12 [Example 303] , state its recorded DC50.
A) 546

Q) Given Cc1ccc2[nH]c(CNc3nc(N4C[C@H]5C[C@@H]4CO5)nc4c(Br)cnn34)nc2c1 [Example 192] , state its recorded DC50.
A) 589

Q) Given CN1CCN(c2nc(NCc3nc4ccccc4[nH]3)n3ncc(Br)c3n2)CC1 [Example 18] , state its recorded DC50.
A) 1390

Q) Given Brc1cnn2c(NCc3nc4ccccc4[nH]3)nc(N3CC4CCC3CN4)nc12 (stereo not drawn) [Example 220] , state its recorded DC50.
A) 1140

Q) Given CN(CC(C)(C)O)c1nc(NCc2nc3cc(F)c(F)cc3[nH]2)n2ncc(Br)c2n1 [Example 347] , state its recorded DC50.
A) 101

Q) Given Cc1[nH]c(CNc2nc(N3CCOCC3)nc3c(Br)cnn23)nc1-c1ccccc1 [Example 27] , state its recorded DC50.
A) 66300

Q) Given Cc1cc2nc(CNc3nc(N4CCOCC4)nc4c(Br)cnn34)[nH]c2cc1C [Example 340] , state its recorded DC50.
A) 827

Q) Given CC1(C)CN(c2nc(NCc3nc4ccccc4[nH]3)n3ncc(Br)c3n2)CCO1 [Example 58] , state its recorded DC50.
A) 1660

Q) Given Cc1ccc2[nH]c(CNc3nc(N4CCOCC4)nc4c(C5CC5)cnn34)nc2c1 [Example 193] , state its recorded DC50.
A) 958

Q) Given CN1CCN(c2nc(NCc3nc4cc(F)c(Cl)cc4[nH]3)n3ncc(Br)c3n2)CC1 [Example 337] , state its recorded DC50.
A) 369

Q) Given Cc1cc2nc(CNc3nc(N4CC5CCC(C4)N5)nc4c(C5CC5)cnn34)[nH]c2cc1C [Example 326] , state its recorded DC50.
A) 654

Q) Given Brc1cnn2c(NCc3nc4ccccc4[nH]3)nc(N3CCCC3)nc12 [Example 47] , state its recorded DC50.
A) 3980

Q) Given CCc1cnn2c(NCc3nc4c(F)c(F)ccc4[nH]3)nc(N3CCN(C)CC3)nc12.O=CO [Example 435] , state its recorded DC50.
A) 274

Q) Given Clc1ccc(-c2cnc(CNc3nc(N4CCOCC4)nc4c(Br)cnn34)[nH]2)cc1 [Example 72] , state its recorded DC50.
A) 11400

Q) Given Brc1cnn2c(NCc3nc4ccccc4[nH]3)nc(N3CCNC4(CC4)C3)nc12 [Example 176] , state its recorded DC50.
A) 208
